Assayed target: KCNQ2/3 channels (Homo sapiens, UniProt O43525+O43526)
Assay info: Fluorescence assay using a voltage sensitive dye (fluorimetry)
Conditions used: CHO-K1 cells expressing KCNQ2/3 channels, agonistic activity
Measured attribute: EC50 (nM)

O=C(NCc1ccc(F)cc1)c1cccnc1SCCC(F)(F)c1cccc(C(F)(F)F)c1 [compound 165] | 30
O=C(NCc1cccs1)c1cccnc1SCCCc1ccc(F)cc1 [compound 17] | 128
O=C(NCC1C2CCC1CC2)c1cccnc1SCCC(F)(F)c1ccc(F)cc1 (stereo not drawn) [compound 164] | 32
O=C(NCC1C2CCC1CC2)c1cccnc1SCCC(F)(F)c1ccc(F)c(F)c1 (stereo not drawn) [compound 210] | 14
Cc1cccc(CNC(=O)c2cccnc2SCCC(F)(F)c2ccc(F)cc2)c1 [compound 183] | 43
O=C(NCC1CCCCC1)c1cccnc1CCCCc1ccccc1 [compound 9] | 1350
O=C(NCc1cccc(-c2ccccc2)c1)c1cccnc1SCCCc1ccc(F)cc1 [compound 122] | 153
O=C(NCC1CC2CCC1C2)c1cccnc1SCCCc1ccc(F)c(C(F)(F)F)c1 (stereo not drawn) [compound 54] | 133
CC(C)(C)C(=O)CNC(=O)c1cccnc1SCCCc1ccc(F)cc1 [compound 125] | 1400
